# credit: patent US20190307868A1

target: HLA-B08:01 (human); assay: competitive inhibition of 125I-labeled probe peptide binding to purified HLA class I; details: remark: other sources report otherwise
endpoint name: IC50 (µM)

1. WLHKRGKYI [… (AKT1, E17K)]
2. FLPSTLKSL [… (ESR1, S463P)]
**Q:** Thinking about recorded IC50 values, which is higher, 1 or 2 ? The response must carry the label of the picked entry.
**A:** 2
